Here the recorded phenotypically active is given for each entry.
# Tested on: HepG2-TP53BP1-CLTA
# assay.procedure: phenotypically active (imaging signature differs from DMSO and reproducible) at any of 0.3-9 uM (binary (1 = active, 0 = inactive)); higher = active
# test.parameters: treatment time: 24 h
Counter-ions that a name gives are not always drawn.
measurement.label: phenotypically active

[[record]]
compound = "CC(C[N+](C)(C)C)OC(N)=O (stereo not drawn) [bethanechol]"
obs_value = 0

[[record]]
compound = "CCc1nc(-c2cccc(C)c2)c(-c2ccnc(NC(=O)c3ccccc3)c2)s1"
obs_value = 1

[[record]]
compound = "C[C@H]1C[C@@H]2[C@H]([C@@H](O)C[C@@]3(C)[C@H]2CC[C@]3(O)C(=O)CO)[C@@]2(C)C=CC(=O)C=C12 [methylprednisolone]"
obs_value = 0

[[record]]
compound = "COc1cc2nc(N3CCN(C(=O)C4COc5ccccc5O4)CC3)nc(N)c2cc1OC (stereo not drawn) [doxazosin]"
obs_value = 1

[[record]]
compound = "CC1Cc2ccccc2N1NC(=O)c1ccc(Cl)c(S(N)(=O)=O)c1 (stereo not drawn) [indapamide]"
obs_value = 0

[[record]]
compound = "C#C[C@]1(OC(C)=O)CC[C@H]2[C@@H]3CCC4=CC(=NO)CC[C@@H]4[C@H]3CC[C@@]21CC [norgestimate]"
obs_value = 0

[[record]]
compound = "c1ccc(CN(CC2=NCCN2)c2ccccc2)cc1 [antazoline]"
obs_value = 0

[[record]]
compound = "CCCc1cc(C)n(C)c(=O)c1CN(C)C(=O)c1cc(-c2ccc(N3CCN(C(C)C)CC3)nc2)cc2c1cnn2C(C)C"
obs_value = 1

[[record]]
compound = "Cc1cc(/N=N/c2ccc(S(=O)(=O)Nc3ccccn3)cc2)c(N)cc1O"
obs_value = 1

[[record]]
compound = "OC[C@H]1O[C@@H](n2cnc3c(NCc4ccco4)ncnc32)[C@H](O)[C@@H]1O [Kinetin riboside]"
obs_value = 1

[[record]]
compound = "C(=C/c1ccccc1)/CN1CCN(C(c2ccccc2)c2ccccc2)CC1 [cinnarazine]"
obs_value = 0

[[record]]
compound = "C[C@@H](Oc1cc(-c2cnn(C3CCNCC3)c2)cnc1N)c1c(Cl)ccc(F)c1Cl [Crizotinib]"
obs_value = 1

[[record]]
compound = "O=C(c1cccc(Br)c1)N1CCC(N2CCCC2)CC1 [UNC 926 hydrochloride]"
obs_value = 0

[[record]]
compound = "CCCNCC(O)COc1ccccc1C(=O)CCc1ccccc1 (stereo not drawn) [propafenone]"
obs_value = 0

[[record]]
compound = "CC(CCc1ccccc1)NCC(O)c1ccc(O)c(C(N)=O)c1 (stereo not drawn) [labetalol]"
obs_value = 0

[[record]]
compound = "NS(=O)(=O)c1cc2c(cc1Cl)N=C(CSCc1ccccc1)NS2(=O)=O [benzthiazide]"
obs_value = 0

[[record]]
compound = "CC(CN1c2ccccc2Sc2ccccc21)N(C)C (stereo not drawn) [promethazine]"
obs_value = 1

[[record]]
compound = "CC(C)(C#N)c1cc(Cn2cncn2)cc(C(C)(C)C#N)c1 [Anastrozole]"
obs_value = 0


* * *

# Test system: WPMY1-ACTB-RAB5A
# assay.procedure: phenotypically active (imaging signature differs from DMSO and reproducible) at any of 0.3-9 uM (binary (1 = active, 0 = inactive)); higher = active
# test.parameters: treatment time: 24 h
Counter-ions that a name gives are not always drawn.
Entries and their phenotypically active values follow.
measurement.label: phenotypically active

[[record]]
compound = "CCCCCN(C)CCC(O)(P(=O)(O)O)P(=O)(O)O [ibandronate]"
obs_value = 0

[[record]]
compound = "COc1ccc(-n2c(SCCCN3C(=O)c4cccc5cccc(c45)C3=O)nnc2-c2ccncc2)cc1"
obs_value = 0

[[record]]
compound = "Nc1ccc(-c2cccc3c(=O)cc(N4CCOCC4)oc23)cc1"
obs_value = 1

[[record]]
compound = "Nc1ncnc2c1ncn2[C@@H]1O[C@H](CO)C[C@H]1O [Cordycepin]"
obs_value = 0

[[record]]
compound = "NCCNS(=O)(=O)c1ccc(Cl)c2ccncc12 [CKI 7 dihydrochloride]"
obs_value = 0


* * *

# Test system: A549-GM130-SQSTM1
# assay.procedure: lowest phenotypically active concentration; higher = less potent
# test.parameters: treatment time: 24 h
Structures can show the parent of a compound that is named as a salt.
measurement.label: lowest phenotypically active concentration (µM)

[[record]]
compound = "CC1(C)CC(=O)C2=C(C1)NC(=S)NC2c1cccc(O)c1 (centres undefined)"
target_under_test = "A549-GM130-SQSTM1"
obs_value = 1

[[record]]
compound = "CCOC(=O)c1c2c3c(cccc3[nH]c1=O)C(=O)c1ccccc1-2"
target_under_test = "A549-GM130-SQSTM1"
obs_value = 1

[[record]]
compound = "c1ccc(CN(CC2=NCCN2)c2ccccc2)cc1"
target_under_test = "A549-GM130-SQSTM1"
obs_value = 9

[[record]]
compound = "CC(=O)Nc1ccc(NC(=S)NC(=O)c2ccc(C(C)(C)C)cc2)cc1"
target_under_test = "A549-GM130-SQSTM1"
obs_value = 1

[[record]]
compound = "COc1cc(N2CCC(O)CC2)ccc1Nc1cc(Nc2ccccc2S(=O)(=O)C(C)C)c2cc[nH]c2n1 [Mps1-IN-1 dihydrochloride]"
target_under_test = "A549-GM130-SQSTM1"
obs_value = 9

[[record]]
compound = "CCCCc1oc2ccc(NS(C)(=O)=O)cc2c1C(=O)c1ccc(OCCCN(CCCC)CCCC)cc1"
target_under_test = "A549-GM130-SQSTM1"
obs_value = 3

[[record]]
compound = "CCN(CCO)CCCC(C)Nc1ccnc2cc(Cl)ccc12 (centres undefined) [hydroxychloroquine]"
target_under_test = "A549-GM130-SQSTM1"
obs_value = 9

[[record]]
compound = "CC(C)(C)c1ccc2cc(C#N)c(C#N)cc2c1"
target_under_test = "A549-GM130-SQSTM1"
obs_value = 3

[[record]]
compound = "COCCCC/C(=N/OCCN)c1ccc(C(F)(F)F)cc1"
target_under_test = "A549-GM130-SQSTM1"
obs_value = 9


* * *

Listing: phenotypically active of selected molecules
# System: WPMY1-TUBA1B-RELA
# assay.procedure: phenotypically active (imaging signature differs from DMSO and reproducible) at any of 0.3-9 uM (binary (1 = active, 0 = inactive)); higher = active
# test.parameters: treatment time: 24 h
measurement.label: phenotypically active

[[record]]
molecule = "CC(C)(C)c1ccc(C(O)CCCN2CCC(C(O)(c3ccccc3)c3ccccc3)CC2)cc1 (centres undefined)"
obs_value = 1

[[record]]
molecule = "C/C=C1\\NC(=O)[C@H]2CSSCCC=C[C@H](CC(=O)N[C@H](C(C)C)C(=O)N2)OC(=O)[C@H](C(C)C)NC1=O"
obs_value = 1

[[record]]
molecule = "N#C/C(=C(/N)Sc1ccc(N)cc1)c1ccccc1C(F)(F)F"
obs_value = 0

[[record]]
molecule = "CCn1c(=O)n([C@H]2CCCN(c3nccc(-c4cc5ccccc5o4)n3)C2)c2ccccc21"
obs_value = 0

[[record]]
molecule = "NC(=O)c1cccc(N)c1 [3-Aminobenzamide]"
obs_value = 0

[[record]]
molecule = "CC(C)C(=O)SCCCCC[C@H](NC(=O)OC(C)(C)C)C(=O)NC12CC3CC(CC(C3)C1)C2"
obs_value = 0

[[record]]
molecule = "CN[C@H]1CC[C@@H](c2ccc(Cl)c(Cl)c2)c2ccccc21"
obs_value = 1

[[record]]
molecule = "COCCCC/C(=N/OCCN)c1ccc(C(F)(F)F)cc1"
obs_value = 0

[[record]]
molecule = "O=c1ncccn1[C@@H]1O[C@H](CO)[C@@H](O)[C@H]1O"
obs_value = 0


* * *

# Test system: A549-TUBA1B-RELA
# assay.procedure: lowest phenotypically active concentration; higher = less potent
# test.parameters: treatment time: 24 h
Where a name gives a salt, the structure may show the parent alone.
Entries and their lowest phenotypically active concentration values follow.
measurement.label: lowest phenotypically active concentration (µM)

[[record]]
compound = "Clc1ccc(C2(c3ccc(-c4cn[nH]c4)cc3)CCNCC2)cc1"
prefix_operator = "≤"
obs_value = 0.3

[[record]]
compound = "CCCCc1oc2ccc(NS(C)(=O)=O)cc2c1C(=O)c1ccc(OCCCN(CCCC)CCCC)cc1 [dronedarone]"
prefix_operator = "="
obs_value = 3

[[record]]
compound = "C[C@]12CCC(=O)C=C1CC[C@@H]1[C@@H]2[C@@H](O)C[C@@]2(C)[C@H]1CC[C@]2(O)C(=O)CO [hydrocortisone]"
prefix_operator = "≤"
obs_value = 0.3

[[record]]
compound = "COc1c(Cl)cc2c([nH]c3cnccc32)c1NC(=O)c1cccnc1C [ML 120B dihydrochloride]"
prefix_operator = "="
obs_value = 9

[[record]]
compound = "Cc1cc2c(F)c(Oc3ncnn4cc(OC[C@@H](C)O)c(C)c34)ccc2[nH]1 [brivanib]"
prefix_operator = "="
obs_value = 9

[[record]]
compound = "CC(C)c1cnn2c(NCc3ccccc3)cc(NCCCCCCN)nc12 [BS 181 dihydrochloride]"
prefix_operator = "="
obs_value = 9

[[record]]
compound = "CC(C)(C)c1cnc(CSc2cnc(NC(=O)C3CCNCC3)s2)o1"
prefix_operator = "≤"
obs_value = 0.3

[[record]]
compound = "CC(CN(C)C)CN1c2ccccc2Sc2ccccc21.CC(CN(C)C)CN1c2ccccc2Sc2ccccc21 (stereo unspecified) [alimemazine]"
prefix_operator = "="
obs_value = 9

[[record]]
compound = "CC/C(=C(/c1ccccc1)c1ccc(OCCN(C)C)cc1)c1ccccc1 [tamoxifen]"
prefix_operator = "="
obs_value = 3

[[record]]
compound = "COc1ccccc1-c1c[nH]c2ncc(-c3cncc(C(=O)N(C)C)c3)cc12"
prefix_operator = "≤"
obs_value = 0.3

[[record]]
compound = "CC/C(=C(\\CC)c1ccc(O)c(CN(CC)CC)c1)c1ccc(O)c(CN(CC)CC)c1"
prefix_operator = "≤"
obs_value = 0.3

[[record]]
compound = "CC(=O)OCC(=O)[C@@]12OC3(CCCC3)O[C@@H]1C[C@H]1[C@@H]3CCC4=CC(=O)C=C[C@]4(C)[C@@]3(F)[C@@H](O)C[C@@]12C [amcinonide]"
prefix_operator = "≤"
obs_value = 0.3

[[record]]
compound = "CCNC(=O)c1noc(-c2cc(C(C)C)c(O)cc2O)c1-c1ccc(CN2CCOCC2)cc1"
prefix_operator = "≤"
obs_value = 0.3

[[record]]
compound = "Cc1ncc(-c2ccnc(Nc3ccc(S(C)(=O)=O)cc3)n2)n1C(C)C"
prefix_operator = "≤"
obs_value = 0.3

[[record]]
compound = "C[C@@H]1COCCN1c1cc(C2(S(C)(=O)=O)CC2)nc(-c2cccc3[nH]ccc23)n1"
prefix_operator = "="
obs_value = 1

[[record]]
compound = "COc1c(C)cnc(Cn2cnc3c(Cl)nc(N)nc32)c1C"
prefix_operator = "≤"
obs_value = 0.3

[[record]]
compound = "CCn1c(=O)n([C@H]2CCCN(c3nccc(-c4cc5ccccc5o4)n3)C2)c2ccccc21"
prefix_operator = "="
obs_value = 9

[[record]]
compound = "CCc1ccc(/C=C/C(=O)Nc2ccc(C(C)=O)cc2)o1 [Heclin]"
prefix_operator = "="
obs_value = 9

[[record]]
compound = "Cc1cc(/N=N/c2ccc(S(=O)(=O)Nc3ccccn3)cc2)c(N)cc1O"
prefix_operator = "="
obs_value = 9

[[record]]
compound = "C=CC(=O)Nc1cccc(Nc2nc(Nc3ccc(OCCOC)cc3)ncc2F)c1"
prefix_operator = "="
obs_value = 9

[[record]]
compound = "COc1ccc(CNC(=O)Nc2ncc([N+](=O)[O-])s2)cc1"
prefix_operator = "="
obs_value = 9

[[record]]
compound = "C[C@@H]1C[C@H]2[C@@H]3C[C@H](F)C4=CC(=O)C=C[C@]4(C)[C@@]3(F)[C@@H](O)C[C@]2(C)[C@@]1(O)C(=O)COC(=O)C(C)(C)C [flumethasone pivalate]"
prefix_operator = "≤"
obs_value = 0.3

[[record]]
compound = "COc1cc(C(=O)N2CCC(N3CCN(C)CC3)CC2)ccc1Nc1ncc2c(n1)N(C)c1ccccc1C(=O)N2C"
prefix_operator = "="
obs_value = 3

[[record]]
compound = "CCC(=O)N1CCN(c2ccc(-n3c(=O)ccc4cnc5ccc(-c6cnc7ccccc7c6)cc5c43)cc2C(F)(F)F)CC1 [Torin 1]"
prefix_operator = "≤"
obs_value = 0.3

[[record]]
compound = "CN[C@H]1CC[C@@H](c2ccc(Cl)c(Cl)c2)c2ccccc21 [sertraline]"
prefix_operator = "="
obs_value = 1

[[record]]
compound = "COc1ccccc1OCCNCC(O)COc1cccc2[nH]c3ccccc3c12 (stereo unspecified) [Carvedilol]"
prefix_operator = "="
obs_value = 9

[[record]]
compound = "O=C(c1cccc(Cl)c1F)N1CCN(Cc2cccc(Nc3nccs3)n2)CC1"
prefix_operator = "="
obs_value = 1

[[record]]
compound = "c1ccc2c(c1)Cc1c(Nc3ccc4c(c3)OCCO4)n[nH]c1-2"
prefix_operator = "="
obs_value = 3

[[record]]
compound = "COc1cc(N2CCOCC2)ccc1Nc1ncc(Cl)c(Nc2ccccc2NS(C)(=O)=O)n1"
prefix_operator = "="
obs_value = 3

[[record]]
compound = "COc1ccc(S(=O)(=O)Nc2cccnc2Nc2ccc(O)cc2)cc1"
prefix_operator = "="
obs_value = 3

[[record]]
compound = "COc1cc2c(NC3CCN(C(C)C)CC3)nc(N3CCC(F)(F)CC3)nc2cc1OCCCN1CCCC1"
prefix_operator = "≤"
obs_value = 0.3

[[record]]
compound = "CCc1cc(-c2n[nH]c(C)c2-c2ccc3c(c2)OCCO3)c(O)cc1O"
prefix_operator = "="
obs_value = 3

[[record]]
compound = "CN(C)C(=O)C(CCN1CCC(O)(c2ccc(Cl)cc2)CC1)(c1ccccc1)c1ccccc1 [loperamide]"
prefix_operator = "="
obs_value = 3

[[record]]
compound = "CN1CCC(=C2c3ccccc3CC(=O)c3sccc32)CC1 [ketotifen]"
prefix_operator = "="
obs_value = 9

[[record]]
compound = "COc1ccccc1S(=O)(=O)Nc1ccc2c(c1)CN(C)C(=O)N2"
prefix_operator = "="
obs_value = 3

[[record]]
compound = "COc1ccc2[nH]c(C(=O)c3ccccc3)cc2c1"
prefix_operator = "≤"
obs_value = 0.3

